- ASSAY EXPLANATION: gradient 5% acetonitrile 3 min, to 50% in 2 min, to 85% in 15 min, held 3 min, 100 µL/min
- CONDITIONS: column: Zorbax Extend-C18 2.1 x 50 mm; eluents: water / acetonitrile, 0.1% formic acid
QUANTITY: RP-LC retention time (s)

1. Cc1ccc(-c2nc3nc(C)cc(C)n3c2Nc2ccc(Cl)cc2)cc1
2. Cc1cc(N2CCCC2)n2nc(CN3CCN(c4ccccc4C)CC3)nc2n1
Q: // max by RP-LC retention time over [ 1 , 2 ] Respond using the label that marks the chosen record.
Ans: 2
(2: 1210 s, 1: 786 s)

* * *

- ASSAY EXPLANATION: gradient 5% acetonitrile 3 min, to 50% in 2 min, to 85% in 15 min, held 3 min, 100 µL/min
- CONDITIONS: column: Zorbax Extend-C18 2.1 x 50 mm; eluents: water / acetonitrile, 0.1% formic acid
QUANTITY: RP-LC retention time (s)

Sample answers from the record:
• CC(C)C(=O)Nc1ccc(C(=O)NCCNS(=O)(=O)N(C)C)cc1 = 631
• COc1ccc(-c2c(C)noc2NC(C)=O)cc1S(=O)(=O)Nc1ccc(Cl)cc1C = 820
• CCn1cc(C(=O)NCc2ccc(C)cc2)c2cccnc21 = 811
• Cc1ccc(N2C(=O)C3N=NN(Cc4nc(-c5ccccc5C)no4)C3C2=O)cc1Cl (configuration not stated) = 1140
• CC(C)(C)c1noc(-c2ccnc(-n3cnc(C(=O)NCC4CC4)c3)c2)n1 = 1110
• CCCn1c(=O)sc2cc(S(=O)(=O)N3CCC(C(=O)N4CCN(C)CC4)CC3)ccc21 = 628

A. CCc1onc(C)c1C1CCCN1Cc1cc(OC)c(O)c(OC)c1 (configuration not stated)
B. c1ccc(-c2csc(Nc3nc(NCc4ccco4)nc(N4CCCCC4)n3)n2)cc1
C. O=C(Cn1c(=O)c2cc(-c3ccco3)nn2c2ncccc21)Nc1ccc(F)cc1F
Q: Place the items in sequence of falling RP-LC retention time. Provide the ranking by listing each label in its place in the requested order.
Ans: B, C, A

P. Cc1ccc(NC(=O)NCC(c2cccnc2)c2c[nH]c3ccccc23)c(C)c1 (configuration not stated)
Q. COc1ccc(-c2nc(C3CC(=O)N(c4ccc(F)c(Cl)c4)C3)no2)c(OC)c1 (configuration not stated)
Q: Returns: the argument ( P or Q ) having the larger RP-LC retention time. I would appreciate it if you answered with the label of your choice.
Ans: Q
(Q: 1000 s, P: 683 s)

1. CCC(C)NC(=O)C1CCN(S(=O)(=O)c2ccc3c(c2)CCCC(=O)N3)CC1 (configuration not stated)
2. COc1ccc(-c2noc(Cc3nnc(-c4cc(C)cc(C)c4)o3)n2)cc1OC
Q: // task: argmin of RP-LC retention time over [ 1 , 2 ] In your reply, give the label of the chosen option.
Ans: 1
(1: 682 s, 2: 997 s)

a. Cc1ccc(N2C(=O)CCS2(=O)=O)cc1S(=O)(=O)N1c2ccccc2CC1C (configuration not stated)
b. Cc1cccc(-c2noc(Cn3cnc4c(cnn4-c4ccc(C)c(Cl)c4)c3=O)n2)c1
c. CCCN1CCN(CCCNc2nc(-c3ccc(OC)cc3)nc3ccccc23)CC1
Q: Your job: order these 3 records by RP-LC retention time, ascending. Please write the labels in the order that was asked for.
Ans: c, a, b
